# System: Pasteurella multocida
# assay: In vitro antibacterial activity against aerobically grown Pasteurella multocida (59A006)
# Type: functional
Would you kindly list MIC for each of these compounds?
Just the number in µg/mL, nothing appended.

Entry CN1C[C@@H]2C[C@H]1CN2c1c(F)cc2c(=O)c(C(=O)O)cn(-c3ccc(F)cc3F)c2c1F , MIC reported as 0.02

Entry CN1[C@@H]2CC[C@H]1CN(c1cc3c(cc1F)c(=O)c(C(=O)O)cn3CCF)C2.Cl.O , MIC reported as 0.2

Entry O=C(O)c1cn(-c2ccc(F)cc2)c2cc(N3C[C@@H]4C[C@H]3CN4)c(F)cc2c1=O , MIC reported as 0.02

Entry CN1C[C@@H]2C[C@H]1CN2c1c(F)cc2c(=O)c(C(=O)O)cn(-c3ccc(F)cc3F)c2c1Cl , MIC reported as 0.01

Entry Cl.O.O=C(O)c1cn(-c2ccc(F)cc2)c2cc(N3CCN4CCC3CC4)c(F)cc2c1=O , MIC reported as 0.02

Entry CN1C[C@@H]2C[C@H]1CN2c1c(F)cc2c(=O)c(C(=O)O)cn(-c3ccc(F)cc3)c2c1F , MIC reported as 0.02

Entry CN1[C@@H]2CC[C@H]1CN(c1cc3c(cc1F)c(=O)c(C(=O)O)cn3C)C2 , MIC reported as 0.78

###

# Tested on: Bordetella bronchiseptica
# assay: In vitro antibacterial activity against aerobically grown Bordetella bronchiseptica (73A009)
# Assay type: functional
measured_metric: MIC (µg/mL)
Just the number in µg/mL, nothing appended.

Entry CCn1cc(C(=O)O)c(=O)c2cc(F)c(N3CC[C@H]4CCC(C3)N4C)c(F)c21 , MIC reported as 1.56

Entry CN1C[C@@H]2C[C@H]1CN2c1cc2c(cc1F)c(=O)c(C(=O)O)cn2-c1ccc(F)cc1 , MIC reported as 1.56

Entry CCn1cc(C(=O)O)c(=O)c2cc(F)c(N3C[C@@H]4C[C@H]3CN4C)cc21 , MIC reported as 1.56

Entry CN1[C@@H]2CC[C@H]1CN(c1c(F)cc3c(=O)c(C(=O)O)cn(CCF)c3c1F)C2 , MIC reported as 6.25

Entry CN1[C@@H]2CC[C@H]1CN(c1cc3c(cc1F)c(=O)c(C(=O)O)cn3C1CC1)C2 , MIC reported as 1.56

Entry Cl.O.O=C(O)c1cn(-c2ccc(F)cc2)c2cc(N3CCN4CCC3CC4)c(F)cc2c1=O , MIC reported as 1.56

Entry O=C(O)c1cn(C2CC2)c2cc(N3CCN4CCCC3C4)c(F)cc2c1=O (configuration not stated) , MIC reported as 0.78

Entry CN1C2CC[C@@H]1CCN(c1nc3c(cc1F)c(=O)c(C(=O)O)cn3C1CC1)C2 , MIC reported as 0.78

Entry CN1C[C@H]2C[C@@H]1CN2c1cc2c(cc1F)c(=O)c(C(=O)O)cn2C1CC1 , MIC reported as 1.56

Entry CN1[C@@H]2CC[C@H]1CN(c1c(F)cc3c(=O)c(C(=O)O)cn(C4CC4)c3c1F)C2 , MIC reported as 3.13

###

# assay: Compound was evaluated for aqueous solubility at pH 7.2
# measurement_parameters: buffer
Would you kindly list solubility for each of these molecules?
Just the number in µg/mL, nothing appended.

Entry CCn1cc(C(=O)O)c(=O)c2cc(F)c(N3CCNCC3)cc21 [NORFLOXACIN] , solubility reported as 350

Entry O=C(O)c1cn(C2CC2)c2cc(N3C[C@@H]4C[C@H]3CN4)c(F)cc2c1=O , solubility reported as 77

###

# Test system: Pasteurella multocida
# assay: In vitro antibacterial activity against aerobically grown Pasteurella multocida (59A006)
# Assay type: functional
measured_metric: MIC (µg/mL)
Just the number in µg/mL, nothing appended.

Entry CCn1cc(C(=O)O)c(=O)c2cc(F)c(N3CCN4CCC3CC4)cc21 , MIC reported as 0.05

Entry CN1C[C@@H]2C[C@H]1CN2c1cc2c(cc1F)c(=O)c(C(=O)O)cn2-c1ccc(F)cc1F , MIC reported as 0.01

Entry CN1[C@@H]2CC[C@H]1CN(c1c(F)cc3c(=O)c(C(=O)O)cn(CCF)c3c1F)C2 , MIC reported as 0.39

Entry CN1C[C@@H]2C[C@H]1CN2c1nc2c(cc1F)c(=O)c(C(=O)O)cn2-c1ccc(F)cc1 , MIC reported as 0.02

Entry CN1[C@@H]2CC[C@H]1CN(c1cc3c(cc1F)c(=O)c(C(=O)O)cn3-c1ccc(F)cc1)C2.Cl.O , MIC reported as 0.2

Entry CN1C2CC[C@@H]1CCN(c1cc3c(cc1F)c(=O)c(C(=O)O)cn3C1CC1)C2 , MIC reported as 0.05

Entry CCn1cc(C(=O)O)c(=O)c2cc(F)c(N3CC[C@H]4CCC(C3)N4C)cc21 , MIC reported as 0.39

###

# Test system: Escherichia coli
# assay: Escherichia coli DNA cleavage endpoint value which is the minimum amount required (in micro g/mL) to induce detectable cleavage of supercoiled pBR322 substrate to linear form (gyrase)
# Assay type: functional
# measurement_parameters: read-out: MIC
Would you kindly list minimum concentration inducing gyrase-mediated DNA cleavage for each of these molecules?
Just the number in µg/mL, nothing appended.

Entry O=C(O)c1cn(C2CC2)c2cc(N3CCN4CCCC3C4)c(F)cc2c1=O (stereo not given) , minimum concentration inducing gyrase-mediated DNA cleavage reported as 0.78

Entry Cl.O.O=C(O)c1cn(CCF)c2cc(N3CCN4CCC3CC4)c(F)cc2c1=O , minimum concentration inducing gyrase-mediated DNA cleavage reported as 0.39

Entry CCn1cc(C(=O)O)c(=O)c2cc(F)c(N3CCN4CCC3CC4)cc21 [BINFLOXACIN] , minimum concentration inducing gyrase-mediated DNA cleavage reported as 1.56

Entry CN1C[C@@H]2C[C@H]1CN2c1c(F)cc2c(=O)c(C(=O)O)cn(C3CC3)c2c1F , minimum concentration inducing gyrase-mediated DNA cleavage reported as 0.39

Entry CCn1cc(C(=O)O)c(=O)c2cc(F)c(N3C[C@H]4CC[C@@H](C3)N4C)c(F)c21 , minimum concentration inducing gyrase-mediated DNA cleavage reported as 3.12

###

Would you kindly list MIC for each of these compounds?
# Test system: Pasteurella multocida
# assay: In vitro antibacterial activity against aerobically grown Pasteurella multocida (59A006)
# Format: functional

Measured on Pasteurella multocida, CN1[C@@H]2CCC[C@H]1CN(c1cc3c(cc1F)c(=O)c(C(=O)O)cn3C1CC1)C2.Cl has a documented MIC of 0.05 µg/mL

Measured on Pasteurella multocida, O=C(O)c1cn(C2CC2)c2c(F)c(N3CCN4CCC3CC4)c(F)cc2c1=O has a documented MIC of 0.002 µg/mL

Measured on Pasteurella multocida, CN1C2CC[C@@H]1CCN(c1cc3c(cc1F)c(=O)c(C(=O)O)cn3CCF)C2 has a documented MIC of 0.39 µg/mL

Measured on Pasteurella multocida, Cl.O.O=C(O)c1cn(CCF)c2c(F)c(N3CCN4CCC3CC4)c(F)cc2c1=O has a documented MIC of 0.2 µg/mL

Measured on Pasteurella multocida, CN1C[C@@H]2C[C@H]1CN2c1c(F)cc2c(=O)c(C(=O)O)cn(C3CC3)c2c1F has a documented MIC of < 0.05 µg/mL

###

Would you kindly list MIC for each of these compounds?
# Test system: Pasteurella multocida
# assay: In vitro antibacterial activity against aerobically grown Pasteurella multocida (59A006)
# Assay type: functional
Just the number in µg/mL, nothing appended.

Measured on Pasteurella multocida, CN1[C@@H]2CC[C@H]1CN(c1c(F)cc3c(=O)c(C(=O)O)cn(C4CC4)c3c1Cl)C2 has a documented MIC of 0.05

Measured on Pasteurella multocida, O=C(O)c1cn(C2CC2)c2cc(N3C[C@@H]4C[C@H]3CN4)c(F)cc2c1=O has a documented MIC of 0.2

Measured on Pasteurella multocida, CCn1cc(C(=O)O)c(=O)c2cc(F)c(N3C[C@H]4CC[C@@H](C3)N4C)c(F)c21 has a documented MIC of 0.2

Measured on Pasteurella multocida, O=C(O)c1cn(-c2ccc(F)cc2F)c2c(F)c(N3C[C@@H]4C[C@H]3CN4)c(F)cc2c1=O has a documented MIC of 0.01

Measured on Pasteurella multocida, CCn1cc(C(=O)O)c(=O)c2cc(F)c(N3CC[C@H]4CCC(C3)N4C)c(F)c21 has a documented MIC of 0.2

Measured on Pasteurella multocida, O=C(O)c1cn(C2CC2)c2cc(N3CCN4CCCC3C4)c(F)cc2c1=O (centres undefined) has a documented MIC of 0.002

Measured on Pasteurella multocida, CN1C2CC[C@@H]1CCN(c1cc3c(cc1F)c(=O)c(C(=O)O)cn3-c1ccc(F)cc1)C2 has a documented MIC of 0.2

Measured on Pasteurella multocida, O=C(O)c1cn(-c2ccc(F)cc2)c2cc(N3CCN4CCCC3C4)c(F)cc2c1=O (centres undefined) has a documented MIC of 0.01

Measured on Pasteurella multocida, CN1C[C@H]2C[C@@H]1CN2c1cc2c(cc1F)c(=O)c(C(=O)O)cn2C1CC1 has a documented MIC of 0.02
